Assay System: T1, GST-hRpn10^305–377 (human, UniProt P55036 305-377)
T1 construct: pGEX-6P-3; a PreScission site lies between GST and hRpn10; source: E. coli Rosetta 2 (DE3), purified (glutathione sepharose, glutathione elution, SEC); not shown: GST, N-terminal, kept
T1 sequence (looked up): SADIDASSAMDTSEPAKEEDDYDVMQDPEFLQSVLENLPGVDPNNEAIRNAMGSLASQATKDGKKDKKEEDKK
Test Method Notes: SPR; Biacore T200; GST-hRpn10 305-377 captured (800 RU) by anti-GST antibody on a CM5 chip, GST on the reference cell; E6AP AZUL 5-250 nM in HBS-P+ with 10 μM zinc sulfate, single cycle kinetics, triplicate
Experimental Parameters: both partners purified
Outcome Measure: pKd
Give bare numbers, as −log10 of the molar value.

# pKd (binder: E6AP AZUL (amino-terminal zinc-binding domain of ubiquitin E3a ligase), amino acids 24 to 87 (domain or fragment, human, UniProt Q05086 24-87, looked up, E6AP/UBE3A AZUL domain, human, amino acids 24 to 87, subcloned from HA-E6AP isoform II; zinc sulfate in the buffers; Isotope-labelled (15N, 13C) in some NMR samples; also called AZUL domain; source: E. coli BL21 (DE3), purified (Ni-NTA, thrombin cleavage, SEC); not shown: polyhistidine tag, N-terminal, cleaved) MKRAAAKHLIERYYHQLTEGCGNEACTNEFCASCPTFLRMDNNAAAIKALELYKINAKLCDPHP ) is 8.09
